// glycan array binding signal (z-score) lookup, one value per entry
Target: Man(a1-3)[Man(a1-6)]Man(a1-6)[Man(a1-3)]Man(b1-4)GlcNAc(b1-4)GlcNAc
Test: glycan array binding signal (z-score within array); higher = stronger binding
Settings: glycan notation: IUPAC condensed, linker removed
Only a selection was taken, and the strongest signals are over-represented in it overall.
property.name: glycan array binding signal (z-score)

1. SBD-G4S3-SBD (protein) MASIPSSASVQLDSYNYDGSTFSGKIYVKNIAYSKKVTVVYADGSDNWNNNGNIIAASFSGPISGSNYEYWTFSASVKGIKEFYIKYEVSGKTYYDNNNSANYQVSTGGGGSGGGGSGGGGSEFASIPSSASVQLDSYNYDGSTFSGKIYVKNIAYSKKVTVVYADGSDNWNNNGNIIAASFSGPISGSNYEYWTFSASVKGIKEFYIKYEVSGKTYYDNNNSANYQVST = -0.351
2. LKITALY (Gibberella zeae) (protein) MGNFHESSNNIWLEDGHILHAECGNGEGDYVESTLDLDYYIGNDDGSFSWGGENFSGSASNITLDIEGDDNIPVLRAELNPMDGDPVEANVNLSERIGNDCGTLIFLA = -0.347
3. SBD (Rhizopus oryzae), P07683 (protein) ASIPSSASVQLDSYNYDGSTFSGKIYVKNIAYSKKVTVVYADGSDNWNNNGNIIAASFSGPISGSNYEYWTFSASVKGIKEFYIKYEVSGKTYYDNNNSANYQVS = -0.313
4. SJCP1531 (Schistosoma japonicum) (protein) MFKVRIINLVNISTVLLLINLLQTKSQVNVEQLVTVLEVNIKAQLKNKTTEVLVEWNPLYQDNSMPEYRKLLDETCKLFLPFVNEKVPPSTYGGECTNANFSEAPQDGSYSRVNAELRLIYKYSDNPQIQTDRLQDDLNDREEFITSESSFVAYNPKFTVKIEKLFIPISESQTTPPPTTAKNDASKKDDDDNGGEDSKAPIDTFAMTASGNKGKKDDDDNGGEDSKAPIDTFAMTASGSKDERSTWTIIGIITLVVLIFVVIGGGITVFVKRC = -0.243
5. PfulAvr4 (Pseudocercospora fuligena) (protein) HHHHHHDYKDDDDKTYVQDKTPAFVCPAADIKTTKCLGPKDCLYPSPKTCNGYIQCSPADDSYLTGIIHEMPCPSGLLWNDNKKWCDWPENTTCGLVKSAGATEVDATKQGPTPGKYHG = -0.097
6. EcCDA (Encephalitazoon cuniculi), Q8SU65 (protein) MLLCLLYFTSSWCSGSDVPDVCTNSGMIAINFVDGPVRGVTDRILNTLDELGVKATFSFTVNQKAVGNVGQLYRRAVEEGHNVALRVDPSMDEGYQCLSQDALENNVDREIDTIDGLSGTEIRYAAVPICNGQVNSEMYNILTERGVLPVGYTFCPYDYDDPVGEFESMIEGSDPKHHSFIILMHDGQEADTSRLENMVKIGKDKGYRFVNMDECLQGYKGAPGDPELSLRGKGVESIGKGFLPFFLMMLVRLL = -0.34
